# Complete listing for each entry below
system: NCI-H292 lung cancer cells; assay: FDA drug screening, complete media vs cholesterol-free media without statin (TABLE 1); format: cell-based, human; settings: NCI-H292 cells, FDA drug library screen, complete media
Counter-ions that a name gives are not always drawn.
// response body must contain only the number

Please review the following examples before continuing.
molecule: COc1ccccc1OC(=O)c1ccccc1OC(C)=O
Complete: 0.7434

molecule: CCOc1ccccc1OCCN[C@H](C)Cc1ccc(OC)c(S(N)(=O)=O)c1
Complete: 0.8695

Please list Complete recorded for the molecule CCCCN1CCCCC1C(=O)Nc1c(C)cccc1C (stereo not drawn) [Bupivacaine (hydrochloride)]
1.01

Please list Complete recorded for the molecule CC(C)NCC(O)COc1ccc(CCOCC2CC2)cc1 (stereo not drawn)
1.079

Please list Complete recorded for the molecule OCCOCCN1CCN(C2=Nc3ccccc3Sc3ccccc32)CC1
0.7581

Please list Complete recorded for the molecule O=C(CCCc1ccccc1)OCC(COC(=O)CCCc1ccccc1)OC(=O)CCCc1ccccc1 [Glycerol phenylbutyrate]
0.8817

Please list Complete recorded for the molecule NS(=O)(=O)c1cc(Cl)c(Cl)c(S(N)(=O)=O)c1 [Dichlorphenamide]
0.9714

Please list Complete recorded for the molecule COc1ccc(CN(CCN(C)C)c2ccccn2)cc1 [Mepyramine maleate]
1.356

Please list Complete recorded for the molecule COc1ccc2cc3[n+](cc2c1OC)CCc1cc2c(cc1-3)OCO2.[Cl-] [Berberine (chloride)]
0.1873

* * *

test system: NCI-H292 lung cancer cells; assay: FDA drug screening, complete media vs cholesterol-free media with simvastatin (TABLE 2); type: cell-based, human; settings: NCI-H292 cells, cholesterol-free media with simvastatin 0.04 μM; cell growth value in FDA drug screen
Where a name gives a salt, the structure may show the parent alone.
// class 0 strictly below 1 in Cholesterol-free media + simvastatin (0.04 μM); class 1 otherwise

Solved cases below.
molecule: COC(=O)[C@H]1[C@H]2C[C@@H]3c4[nH]c5cc(OC)ccc5c4CCN3C[C@H]2C[C@@H](OC(=O)c2cc(OC)c(OC)c(OC)c2)[C@@H]1OC [Reserpine]
subject of test: NCI-H292 lung cancer cells
group: class 0
--
molecule: CCOC(=O)[C@H](C)C[C@@H](Cc1ccc(-c2ccccc2)cc1)NC(=O)CCC(=O)O [Sacubitril]
subject of test: NCI-H292 lung cancer cells
group: class 1
--
molecule: CN(C)c1ccc2nc3ccc(=[N+](C)C)cc-3sc2c1 [Methylene blue (trihydrate)]
subject of test: NCI-H292 lung cancer cells
group: class 0
--
molecule: Cc1ccc2c(c1)c1c(n2CCc2ccc(C)nc2)CCN(C)C1 [Latrepirdine (dihydrochloride)]
subject of test: NCI-H292 lung cancer cells
group: class 1
--
molecule: O=C(O)CCNC(=O)c1ccccc1 [Betamipron]
subject of test: NCI-H292 lung cancer cells
group: class 0
--
molecule: Cc1cn(-c2cc(NC(=O)c3ccc(C)c(Nc4nccc(-c5cccnc5)n4)c3)cc(C(F)(F)F)c2)cn1 [Nilotinib]
subject of test: NCI-H292 lung cancer cells
group: class 0
--
molecule: Nc1ncc2ncn(CC3(OCP(=O)(O)O)CC3)c2n1 [Besifovir]
subject of test: NCI-H292 lung cancer cells
group: class 0
--
molecule: NC(=O)c1cccc2cn(-c3ccc([C@@H]4CCCNC4)cc3)nc12 [Niraparib (hydrochloride)]
subject of test: NCI-H292 lung cancer cells
group: class 0
--
molecule: CC(C)(C(=O)c1cccnc1)c1cccnc1 [Metyrapone]
subject of test: NCI-H292 lung cancer cells
group: class 0
--
molecule: Cc1c(C(=O)NN2CCCCC2)nn(-c2ccc(Cl)cc2Cl)c1-c1ccc(Cl)cc1 [Rimonabant (Hydrochloride)]
subject of test: NCI-H292 lung cancer cells
group: class 0

Test whether the molecule CCCOc1ccc(S(=O)(=O)NCCC2CCCN2C)cc1-c1nc2c(CCC)nn(C)c2c(=O)[nH]1 (stereo not drawn) [Udenafil] records Cholesterol-free media + simvastatin (0.04 μM) of 1 or higher.
class 1

Test whether the molecule CCCCC(=O)OCC(=O)[C@]1(O)Cc2c(O)c3c(c(O)c2[C@@H](O[C@H]2C[C@H](NC(=O)C(F)(F)F)[C@H](O)[C@H](C)O2)C1)C(=O)c1c(OC)cccc1C3=O [Valrubicin] records Cholesterol-free media + simvastatin (0.04 μM) of 1 or higher.
class 0

Test whether the molecule Cn1c(=O)cc(N2CCC[C@@H](N)C2)n(Cc2cc(F)ccc2C#N)c1=O [Trelagliptin] records Cholesterol-free media + simvastatin (0.04 μM) of 1 or higher.
class 1
